Subject Of Test: UniProt P42336
Sequence (P42336 whole entry): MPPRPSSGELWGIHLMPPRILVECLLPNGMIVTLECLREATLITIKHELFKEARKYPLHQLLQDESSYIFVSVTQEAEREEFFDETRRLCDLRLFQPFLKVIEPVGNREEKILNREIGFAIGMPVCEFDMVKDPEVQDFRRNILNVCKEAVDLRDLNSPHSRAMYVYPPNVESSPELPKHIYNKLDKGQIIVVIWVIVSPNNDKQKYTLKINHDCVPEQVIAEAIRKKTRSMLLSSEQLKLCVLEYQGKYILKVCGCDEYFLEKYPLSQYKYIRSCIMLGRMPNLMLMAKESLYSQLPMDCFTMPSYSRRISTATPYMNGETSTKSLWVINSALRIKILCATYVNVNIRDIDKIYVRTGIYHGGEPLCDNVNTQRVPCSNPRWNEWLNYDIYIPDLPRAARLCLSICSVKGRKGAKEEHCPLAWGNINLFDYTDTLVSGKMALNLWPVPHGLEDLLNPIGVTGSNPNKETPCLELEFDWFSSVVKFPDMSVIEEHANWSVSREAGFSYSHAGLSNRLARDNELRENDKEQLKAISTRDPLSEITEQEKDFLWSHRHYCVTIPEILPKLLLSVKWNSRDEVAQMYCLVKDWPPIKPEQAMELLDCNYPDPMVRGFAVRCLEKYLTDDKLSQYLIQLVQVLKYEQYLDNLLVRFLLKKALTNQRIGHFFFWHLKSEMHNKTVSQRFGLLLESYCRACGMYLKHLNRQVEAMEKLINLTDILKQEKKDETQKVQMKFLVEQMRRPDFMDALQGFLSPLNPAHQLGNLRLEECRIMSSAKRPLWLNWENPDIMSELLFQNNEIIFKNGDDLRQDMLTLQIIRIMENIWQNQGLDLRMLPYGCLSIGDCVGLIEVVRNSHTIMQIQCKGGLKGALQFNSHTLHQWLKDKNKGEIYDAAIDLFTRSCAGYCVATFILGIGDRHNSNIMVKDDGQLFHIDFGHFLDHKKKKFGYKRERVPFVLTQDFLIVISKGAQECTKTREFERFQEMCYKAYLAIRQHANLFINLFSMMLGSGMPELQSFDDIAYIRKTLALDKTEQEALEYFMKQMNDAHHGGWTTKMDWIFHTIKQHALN
Sequence (P27986 whole entry partner): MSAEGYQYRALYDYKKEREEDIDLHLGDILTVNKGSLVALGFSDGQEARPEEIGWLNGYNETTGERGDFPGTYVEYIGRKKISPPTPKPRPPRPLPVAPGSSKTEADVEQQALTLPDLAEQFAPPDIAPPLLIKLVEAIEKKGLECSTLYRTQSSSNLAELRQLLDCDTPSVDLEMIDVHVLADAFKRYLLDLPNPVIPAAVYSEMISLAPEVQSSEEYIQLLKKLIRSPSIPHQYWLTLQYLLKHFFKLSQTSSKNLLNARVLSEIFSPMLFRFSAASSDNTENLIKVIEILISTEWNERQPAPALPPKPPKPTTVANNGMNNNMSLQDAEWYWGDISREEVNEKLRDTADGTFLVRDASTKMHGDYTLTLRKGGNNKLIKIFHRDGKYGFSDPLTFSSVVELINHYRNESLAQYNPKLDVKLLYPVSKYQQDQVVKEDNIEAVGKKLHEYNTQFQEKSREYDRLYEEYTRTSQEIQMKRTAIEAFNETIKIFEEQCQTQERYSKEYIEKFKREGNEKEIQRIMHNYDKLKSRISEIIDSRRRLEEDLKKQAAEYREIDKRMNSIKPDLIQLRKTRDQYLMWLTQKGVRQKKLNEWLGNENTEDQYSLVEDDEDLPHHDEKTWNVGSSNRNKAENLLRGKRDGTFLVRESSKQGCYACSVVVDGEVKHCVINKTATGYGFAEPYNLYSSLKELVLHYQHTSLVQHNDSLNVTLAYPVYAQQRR
Method Notes: Fluorescent determination of PI3Kinase enzyme activity (HTRF), PI3Kα
Type: biochemical
# inhibition at 1 µM per entry

>>> print(df.to_string())
                                   compound  reported_result
0  Cc1n[nH]c2cc(-c3nn([C@H](C)c4cc5cccc(Cl)c5c(=O)n4-c4ccccc4)c4ncnc(N)c34)ccc12 [Example 21b]         0 to 10%
1  CC(C)Oc1ccc(-c2nn([C@@H](C)c3nc4ccccc4c(=O)n3-c3ccccc3)c3ncnc(N)c23)cc1F         0 to 10%
2  COc1ccc(-c2nn(C(C)c3cc4cccc(Cl)c4c(=O)n3-c3ccccc3)c3ncnc(N)c23)cc1NS(C)(=O)=O (stereo not shown)        40 to 60%

// moving on: another record for inhibition at 1 µM
Inquiry: Please report the recorded inhibition at 1 µM for CC(c1nc2ccccc2c(=O)n1-c1ccccc1)n1nc(-c2ccc(O)c(F)c2)c2c(N)ncnc21 (stereo not shown) .
Reply text: 0 to 10%
